# SUBJECT OF TEST: CD33 (Sino Biological, Cat #12238-H08H) (UniProt P20138 18-259)
# Sequence (P20138 18-259 limits assumed): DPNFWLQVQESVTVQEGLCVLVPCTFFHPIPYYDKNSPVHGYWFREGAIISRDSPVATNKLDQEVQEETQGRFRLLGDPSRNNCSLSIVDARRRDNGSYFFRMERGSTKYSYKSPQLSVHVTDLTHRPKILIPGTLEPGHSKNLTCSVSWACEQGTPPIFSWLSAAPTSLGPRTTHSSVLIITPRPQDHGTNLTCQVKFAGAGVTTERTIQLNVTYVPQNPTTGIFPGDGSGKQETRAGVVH
# ASSAY NAME: BLI, IgG captured on anti-human Fc sensor, 50 nM CD33, pH 7.4 vs pH 5.4
REPORTED PROPERTY: binding result

{"columns": ["BINDER", "RECORDED RESULT"],
 "data": [
  ["MYT1598 (antibody, V domains shown, IgG; gemtuzumab VL variant #9 (Y32H)) VH: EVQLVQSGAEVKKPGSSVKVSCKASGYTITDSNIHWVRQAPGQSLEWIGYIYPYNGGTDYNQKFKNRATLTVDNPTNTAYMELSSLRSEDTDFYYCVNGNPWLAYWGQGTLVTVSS VL: DIQLTQSPSTLSASVGDRVTITCRASESLDNHGIRFLTWFQQKPGKAPKLLMYAASNQGSGVPSRFSGSGSGTEFTLTISSLQPDDFATYYCQQTKEVPWSFGQGTKVEVK", "binds"],
  ["MYT1169 (antibody, V domains shown, IgG; gemtuzumab VH combination #8 (Y52H+Y54H)) VH: EVQLVQSGAEVKKPGSSVKVSCKASGYTITDSNIHWVRQAPGQSLEWIGYIHPHNGGTDYNQKFKNRATLTVDNPTNTAYMELSSLRSEDTDFYYCVNGNPWLAYWGQGTLVTVSS VL: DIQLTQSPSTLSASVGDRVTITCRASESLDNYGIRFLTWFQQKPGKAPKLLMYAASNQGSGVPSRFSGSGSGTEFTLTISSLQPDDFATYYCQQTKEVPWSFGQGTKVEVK", "binds"],
  ["MYT1614 (antibody, V domains shown, IgG; gemtuzumab VL variant #25 (T95H)) VH: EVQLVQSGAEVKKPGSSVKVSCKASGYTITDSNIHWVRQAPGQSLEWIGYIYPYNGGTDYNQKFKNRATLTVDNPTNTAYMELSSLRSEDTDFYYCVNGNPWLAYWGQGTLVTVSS VL: DIQLTQSPSTLSASVGDRVTITCRASESLDNYGIRFLTWFQQKPGKAPKLLMYAASNQGSGVPSRFSGSGSGTEFTLTISSLQPDDFATYYCQQHKEVPWSFGQGTKVEVK", "binds"]
]}
